# assayed target: human TRPM8 (hTRPM8) (Homo sapiens, UniProt Q7Z2W7)
# Sequence (Q7Z2W7 whole entry): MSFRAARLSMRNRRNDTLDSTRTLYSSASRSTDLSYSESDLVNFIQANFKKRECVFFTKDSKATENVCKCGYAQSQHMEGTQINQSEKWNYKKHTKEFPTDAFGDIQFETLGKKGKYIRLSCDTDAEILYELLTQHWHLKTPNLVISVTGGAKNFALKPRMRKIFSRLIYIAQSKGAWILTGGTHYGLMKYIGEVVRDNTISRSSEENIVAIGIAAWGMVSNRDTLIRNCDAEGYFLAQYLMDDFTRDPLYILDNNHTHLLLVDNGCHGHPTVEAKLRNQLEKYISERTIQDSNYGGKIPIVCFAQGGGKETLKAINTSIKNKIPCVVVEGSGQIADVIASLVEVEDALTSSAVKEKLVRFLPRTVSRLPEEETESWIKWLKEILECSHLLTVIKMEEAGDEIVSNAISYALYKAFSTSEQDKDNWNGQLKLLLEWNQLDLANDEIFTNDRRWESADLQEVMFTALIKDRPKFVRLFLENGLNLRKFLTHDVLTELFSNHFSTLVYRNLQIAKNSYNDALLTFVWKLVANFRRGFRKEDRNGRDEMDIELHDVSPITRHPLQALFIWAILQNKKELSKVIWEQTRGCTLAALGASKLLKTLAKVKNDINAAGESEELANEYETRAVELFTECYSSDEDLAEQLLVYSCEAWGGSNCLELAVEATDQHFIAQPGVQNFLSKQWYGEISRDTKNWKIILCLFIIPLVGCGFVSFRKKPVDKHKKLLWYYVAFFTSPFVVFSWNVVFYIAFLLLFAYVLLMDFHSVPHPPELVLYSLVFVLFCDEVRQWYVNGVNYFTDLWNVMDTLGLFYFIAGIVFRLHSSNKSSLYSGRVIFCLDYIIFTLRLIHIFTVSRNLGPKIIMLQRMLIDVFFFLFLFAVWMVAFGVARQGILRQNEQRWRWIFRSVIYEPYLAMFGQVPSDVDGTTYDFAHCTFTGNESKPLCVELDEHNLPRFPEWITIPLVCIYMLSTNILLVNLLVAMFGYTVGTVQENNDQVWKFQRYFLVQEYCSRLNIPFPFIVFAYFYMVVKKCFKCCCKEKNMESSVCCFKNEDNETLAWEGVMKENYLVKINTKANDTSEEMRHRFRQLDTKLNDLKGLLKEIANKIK
# assay info: whole-cell patch clamp, hTRPM8-HEK293 cells; agonist dose-response
attribute measured: pEC50
Remember the convention: pEC50 equals -log10 of concentration in molar.

Problem: Look up and report measured pEC50 (human TRPM8 (hTRPM8) (Homo sapiens, UniProt Q7Z2W7)) for the following molecule: COc1ccc(NC(=O)[C@@H]2C[C@H](C)CC[C@H]2C(C)C)cc1
Result: 6.30
